study.system: IP receptor (Homo sapiens, UniProt P43119)
Sequence (P43119 whole entry): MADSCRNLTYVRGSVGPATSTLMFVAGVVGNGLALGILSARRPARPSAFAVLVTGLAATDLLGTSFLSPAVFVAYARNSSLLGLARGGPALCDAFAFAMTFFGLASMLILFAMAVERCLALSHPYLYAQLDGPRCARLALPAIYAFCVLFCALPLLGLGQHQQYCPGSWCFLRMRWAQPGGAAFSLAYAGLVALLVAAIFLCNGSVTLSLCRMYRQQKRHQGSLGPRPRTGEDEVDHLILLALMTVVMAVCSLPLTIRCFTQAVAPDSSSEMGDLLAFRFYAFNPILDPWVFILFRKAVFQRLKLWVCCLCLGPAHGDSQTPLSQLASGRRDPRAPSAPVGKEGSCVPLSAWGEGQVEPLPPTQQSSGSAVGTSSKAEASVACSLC
measurement.notes: VEGF secretion in TNFα-stimulated human macrophages (IP agonist / IP antagonist)
pEC50: −log10 of the molar value.

{"smiles.str": "CCC#CC[C@H](C)[C@H](O)C#C[C@@H]1[C@H]2C/C(=C/COCC(=O)O)C[C@H]2C[C@H]1O", "pEC50": 8.64}
